Would you kindly list minimum concentration that could be detected for each of these compounds?
system: secobarbital antibody; assay: Secobarbital (seconal) spin immunoassay
Answers are plain numbers, in µg/mL.

[
  {
    "COMPOUND": "CCCC(C)C1(CC)C(=O)NC(=S)NC1=O (stereo not shown) [thiopental sodium]",
    "ASSAYED_SYSTEM": "secobarbital antibody",
    "ASSAY_RESULT": 3.5
  },
  {
    "COMPOUND": "CCC1(c2ccccc2)C(=O)NC(=O)NC1=O [sodium phenobarbital]",
    "ASSAYED_SYSTEM": "secobarbital antibody",
    "ASSAY_RESULT": 40
  },
  {
    "COMPOUND": "CCC1(CCC(C)C)C(=O)NC(=O)NC1=O",
    "ASSAYED_SYSTEM": "secobarbital antibody",
    "ASSAY_RESULT": 2.5
  }
]

Would you kindly look at the next entry?
Need minimum concentration that could be detected, item CCCC(C)C1(CC)C(=O)NC(=O)NC1=O (stereo not shown)
2

Reference for the values: patent US3966744A
